- Test system: HEK-293T
- Protocol text: Multiplex assay against HEK293T
- Assay type: toxicity, cell-based
- Test context: human, 24 h, 1 µM, compound concentration 1 uM, replicate 1
Param label: returns condition met when Population Normal (%) < 90%, returns condition not met otherwise, including exact equality.

COc1cccc2cc(-c3nc([C@H]4CC[C@H](C(=O)O)CC4)n4ncnc(N)c34)[nH]c12 [OSI-027]: condition met

Ask: Is it true that Population Normal (%) reported for Cl.O=c1c2cccn2c2ccccc2n1CCCN1CCC(c2ccc(Cl)cc2)CC1 is less than 90%?
Result: condition met

Ask: Is it true that Population Normal (%) reported for O=C1N/C(=N/c2ccccc2F)S/C1=C\c1ccc(C(=O)O)cc1 is less than 90%?
Result: condition met

Ask: Is it true that Population Normal (%) reported for CCCn1c(=O)c2[nH]c(-c3cnn(Cc4cccc(C(F)(F)F)c4)c3)nc2n(CC)c1=O [GS 6201] is less than 90%?
Result: condition met

Ask: Is it true that Population Normal (%) reported for COc1cc(N2CCN(C)CC2)ccc1Nc1ncc2c(n1)N(C)c1ccccc1C(=O)N2C is less than 90%?
Result: condition not met

The measured values listed here are drawn from ChEMBL document CHEMBL4689842.
